# Tested on: Streptococcus pneumoniae
# run_description: Antibacterial activity against penicillin-resistant Streptococcus pneumoniae by microdilution broth method
# Type: functional
Mark MET for MIC under 0.2 µg/mL, NOT MET if at or over.

Study these solved cases before continuing.
molecule | subject_of_test | category
O=C1O[C@@H](Cn2ccnn2)CN1c1ccc(N2CCN(S(=O)(=O)c3ccc(C(F)(F)F)cc3)CC2)c(F)c1 | Streptococcus pneumoniae | NOT MET
Nc1cccc(S(=O)(=O)N2CCN(c3ccc(N4C[C@H](Cn5ccnn5)OC4=O)cc3F)CC2)c1 | Streptococcus pneumoniae | NOT MET
O=C1O[C@@H](Cn2ccnn2)CN1c1ccc(N2CCN(S(=O)(=O)c3ccccc3C(F)(F)F)CC2)c(F)c1 | Streptococcus pneumoniae | NOT MET

Input O=C1O[C@@H](Cn2ccnn2)CN1c1ccc(N2CCN(S(=O)(=O)c3ccc(Cl)cc3)CC2)c(F)c1 ; condition: MIC strictly below 0.2 µg/mL. Does it hold?
MET

# TODO verify MIC < 0.2 µg/mL strictly for this molecule: O=C1O[C@@H](Cn2ccnn2)CN1c1ccc(N2CCN(S(=O)(=O)c3cccc(F)c3)CC2)c(F)c1
MET

Please state whether MIC is below 0.2 µg/mL for O=C1O[C@@H](Cn2ccnn2)CN1c1ccc(N2CCN(S(=O)(=O)c3ccc(F)cc3F)CC2)c(F)c1
NOT MET

Problem: For the molecule O=C1O[C@@H](Cn2ccnn2)CN1c1ccc(N2CCN(S(=O)(=O)c3cccs3)CC2)c(F)c1 , is MIC under 0.2 µg/mL?
NOT MET

Record CC(=O)NC[C@H]1CN(c2ccc(N3CCOCC3)c(F)c2)C(=O)O1 [LINEZOLID] : is its MIC strictly below 0.2 µg/mL?
NOT MET

Is 0.2 µg/mL strictly greater than the molecule's reported MIC? molecule: CN[C@H](CC(C)C)C(=O)N[C@H]1C(=O)N[C@@H](CC(N)=O)C(=O)N[C@H]2C(=O)N[C@H]3C(=O)N[C@H](C(=O)N[C@H](C(=O)O)c4cc(O)cc(O)c4-c4cc3ccc4O)[C@H](O)c3ccc(c(Cl)c3)Oc3cc2cc(c3O[C@@H]2O[C@H](CO)[C@@H](O)[C@H](O)[C@H]2O[C@H]2C[C@](C)(N)[C@H](O)[C@H](C)O2)Oc2ccc(cc2Cl)[C@H]1O [VANCOMYCIN]
NOT MET

Please check: MIC for O=C1O[C@@H](Cn2ccnn2)CN1c1ccc(N2CCN(S(=O)(=O)c3ccc(Br)cc3)CC2)c(F)c1 , strictly under 0.2 µg/mL or not?
NOT MET
